- Test System: T1, human soluble urokinase plasminogen activator receptor (suPAR) (human, UniProt Q03405 23-303, limits assumed)
- T1 construct: Column head says only 'human'; also called human suPAR; hsuPAR
- T1 sequence (Q03405 23-303 limits assumed): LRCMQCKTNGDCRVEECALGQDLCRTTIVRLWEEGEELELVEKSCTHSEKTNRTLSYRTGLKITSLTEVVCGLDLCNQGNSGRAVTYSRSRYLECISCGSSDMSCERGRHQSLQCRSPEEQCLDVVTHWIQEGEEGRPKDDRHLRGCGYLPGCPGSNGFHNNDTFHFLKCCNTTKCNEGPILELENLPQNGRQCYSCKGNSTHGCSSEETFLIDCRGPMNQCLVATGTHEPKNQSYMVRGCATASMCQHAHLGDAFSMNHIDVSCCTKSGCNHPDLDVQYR
- Measurement Description: BLI (Octet) off-rate screen of scFv clones
Value Type: koff (s⁻¹)
Express your answer in s⁻¹, writing the number without its unit.

query: Please report the recorded koff for suPAR_DB02_H03 (scFv, V domains shown, scFv clone from phage display) VH: QVQLVQSGAEVKKPGASVKVSCKASGYTFTTYYMHWVRQAPGQGLEWMGWIDPEGGSTIYDQKFQGRVTMTRDTSTSTVYMELSSLRSEDTAVYYCARGYDVDWFVYWGQGTLVTVSS VL: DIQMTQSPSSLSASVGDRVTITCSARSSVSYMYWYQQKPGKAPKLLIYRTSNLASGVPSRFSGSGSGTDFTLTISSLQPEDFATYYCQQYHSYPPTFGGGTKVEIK .
result: 0.00594

Measured values drawn from patent US20250215104A1 for this set.
